Entries annotated with measured SH2 binding enrichment
tested system: Grb2 SH2 (UniProt P62993)
Sequence (P62993 whole entry, looked up, the tested form may be a part): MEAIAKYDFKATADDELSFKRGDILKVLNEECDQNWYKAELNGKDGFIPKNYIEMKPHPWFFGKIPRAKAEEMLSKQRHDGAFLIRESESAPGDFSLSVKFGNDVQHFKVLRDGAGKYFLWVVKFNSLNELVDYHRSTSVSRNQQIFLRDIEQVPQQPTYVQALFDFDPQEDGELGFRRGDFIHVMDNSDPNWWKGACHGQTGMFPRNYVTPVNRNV
method: SH2 binding enrichment of the phosphorylated peptide, bacterial display (enrichment ratio); higher = better substrate or ligand; peptides without Tyr show the background;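 also: peptide library displayed on the E. coli surface as eCPX fusions, selected cells deep-sequenced, score is each peptide's frequency after selection divided by its frequency in the input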

[
  {
    "sequence string": "STFVPCEIKVQ [L1CAM_Y784_Y784C]",
    "SH2 binding enrichment": 0.819
  },
  {
    "sequence string": "KLSHLYQDHMQ [WNT5A_Y86_C83S]",
    "SH2 binding enrichment": 0.832
  },
  {
    "sequence string": "IYETDYYRKGG [INSR_Y1189]",
    "SH2 binding enrichment": 0.863
  },
  {
    "sequence string": "ADEQIYWQIAA [CSKtide_2014]",
    "SH2 binding enrichment": 0.649
  },
  {
    "sequence string": "FSLIHYAGIVD [MYH7_Y582]",
    "SH2 binding enrichment": 1.45
  },
  {
    "sequence string": "MTRDIYETDFF [INSR_Y1185_YF]",
    "SH2 binding enrichment": 0.855
  },
  {
    "sequence string": "LPIQTYSALNF [DES_Y423]",
    "SH2 binding enrichment": 0.735
  },
  {
    "sequence string": "DSFWSYCNAVA [SLC20A2_Y436_S434W_YF]",
    "SH2 binding enrichment": 1.05
  },
  {
    "sequence string": "PSAELYSYALP [PDGFRB_Y716_N718Y]",
    "SH2 binding enrichment": 0.966
  },
  {
    "sequence string": "CTTILYNFMCN [TP53_Y234_H233L_YF]",
    "SH2 binding enrichment": 2.3
  },
  {
    "sequence string": "PVQAAYPKVVA [HBB_Y131_Q132P]",
    "SH2 binding enrichment": 0.904
  },
  {
    "sequence string": "TNLVPYPRIHF [TUBA1A_Y262]",
    "SH2 binding enrichment": 0.997
  },
  {
    "sequence string": "FGGLRYGFGGL [KRTAP20-2_Y13_V17G_YF]",
    "SH2 binding enrichment": 0.903
  },
  {
    "sequence string": "RQQEDYLLYKQ [RARRES1_Y159]",
    "SH2 binding enrichment": 0.821
  }
]

These data points were gathered from the supplement of paper PMC10065799.
